Data provenance: patent US11510906B1

Test system: Trypanosoma brucei brucei bloodstream form (BSF) parasites (cell line 90-13, a 427 strain)
Assay notes: Parasite viability assay (CellTiter Blue), bloodstream form African trypanosomes
Format: cell-based
Test context: 10 μM compound, 48 hours

# Compound structure string, Unit descriptor, % BSF Growth Inhibition @ 10 μM
rows = [
    ("C[Se]c1c(-c2ccccc2)n2c(=O)n(-c3ccccc3)c(=O)n12", "%", 46.1),
    ("Cc1ccc(S(=O)(=O)N(C)c2c(-c3ccccc3)n3c(=O)n(-c4ccccc4)c(=O)n23)cc1", "%", 2.5),
    ("O=c1n(-c2ccccc2)c(=O)n2c(-c3ccccc3)c(Sc3ccccc3)n12", "%", 11.5),
    ("O=c1n(-c2ccccc2)c(=O)n2c(-c3ccccc3)c(SCc3ccccc3)n12", "%", 98.87),
    ("CSc1c(-c2ccc(Cl)cc2)n2c(=O)n(-c3ccccc3)c(=O)n12", "%", 62.2),
    ("CCCCSc1c(-c2ccccc2)n2c(=O)n(-c3ccccc3)c(=O)n12", "%", 80.5),
    ("CCSc1c(-c2ccc(C)cc2)n2c(=O)n(-c3ccccc3)c(=O)n12", "%", 95.2),
    ("Cc1ccc(S(=O)(=O)N(C)c2c(-c3ccc(C(F)(F)F)cc3)n3c(=O)n(-c4ccccc4)c(=O)n23)cc1", "%", 0),
    ("CCCCCCCCSc1c(-c2ccccc2)n2c(=O)n(-c3ccccc3)c(=O)n12", "%", 94.71),
    ("CCCCc1c(SC)n2c(=O)n(-c3ccccc3)c(=O)n12", "%", 95.6),
    ("CSc1c(-c2ccccc2)n2c(=O)n(-c3ccccc3)c(=O)n12", "%", 35.6),
    ("O=c1n(-c2ccccc2)c(=O)n2c(-c3ccccc3)c([Se]c3ccccc3)n12", "%", 84.24),
    ("CSc1c(-c2ccc(C(F)(F)F)cc2)n2c(=O)n(-c3ccccc3)c(=O)n12", "%", 89.6),
    ("CCSc1c(-c2ccccc2)n2c(=O)n(-c3ccccc3)c(=O)n12", "%", 23.4),
    ("CCCCCSc1c(-c2ccccc2)n2c(=O)n(-c3ccccc3)c(=O)n12", "%", 98.21),
    ("COc1ccc(-c2c(SC)n3c(=O)n(-c4ccccc4)c(=O)n23)cc1", "%", 77.1),
    ("CCCCSc1c(CCCC)n2c(=O)n(-c3ccccc3)c(=O)n12", "%", 59.2),
    ("CCCSc1c(-c2ccccc2)n2c(=O)n(-c3ccccc3)c(=O)n12", "%", 96.6),
]
